measured target: MCR1 (human, UniProt Q01726 1-317)
Sequence (Q01726 whole entry): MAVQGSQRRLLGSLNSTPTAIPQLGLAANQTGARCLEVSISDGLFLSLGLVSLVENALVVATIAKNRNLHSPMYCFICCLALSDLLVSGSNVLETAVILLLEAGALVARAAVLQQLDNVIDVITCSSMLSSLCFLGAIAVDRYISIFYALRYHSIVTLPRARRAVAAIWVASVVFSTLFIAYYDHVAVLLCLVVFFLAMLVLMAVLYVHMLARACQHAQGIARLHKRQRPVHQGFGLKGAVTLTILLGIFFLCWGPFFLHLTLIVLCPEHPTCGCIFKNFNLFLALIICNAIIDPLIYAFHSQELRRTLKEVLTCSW
experiment summary: cell-based or functional assay
Square brackets hold non-standard residues; d marks the D form. Ends that are not written are not given here. Nle = CCCC[C@H](N)C(=O)O; βAla = NCCC(=O)O
Assignment: determine reported MCR1 EC50 (nM); cAMP production, LANCE cAMP assay, CHO-MCR1 cells, cell pool B for the given binders.
Report the figure in nM without appending any unit label.

Notebook: SYSMEHFRWGKPVGKKRRPVKVYPGGGGSRRKRSYS[Nle]EH[dF]RWGKPV [ACTH1-24-proconvertase-NDP-α-MSH] , MCR1 EC50 (nM); cAMP production, LANCE cAMP assay, CHO-MCR1 cells, cell pool B read as 0.44

Notebook: ACTH1-24-natural N-terminal spacer-NDP-α-MSH (ends and bridges not checked) peptide: SYSMEHFRWGKPVGKKRRPVKVYPPLPEGGPEPRSDGAKPGPREGKRSYS[Nle]EH[dF]RWGKPV , MCR1 EC50 (nM); cAMP production, LANCE cAMP assay, CHO-MCR1 cells, cell pool B read as 0.63

Notebook: NDP-α-MSH-linker-Furin site-linker-ACTH1-24 (peptide) peptide: Ac-SYS[Nle]EH[dF]RWGKPVGGGGSRRKRGGGGSSYSMEHFRWGKPVGKKRRPVKVYP , MCR1 EC50 (nM); cAMP production, LANCE cAMP assay, CHO-MCR1 cells, cell pool B read as 0.333

Notebook: [Nle]EH[dF]RW[βAla]G[βAla][Nle]EH[dF]RW [NDP-ACTH4-9-βAla-G-βAla-NDP-ACTH4-9] , MCR1 EC50 (nM); cAMP production, LANCE cAMP assay, CHO-MCR1 cells, cell pool B read as 0.35

Notebook: ACTH1-24-natural C-terminal spacer-NDP-α-MSH (ends and bridges not checked) peptide: SYSMEHFRWGKPVGKKRRPVKVYPELTGQRLREGDGPDGPADDGAGASYS[Nle]EH[dF]RWGKPV , MCR1 EC50 (nM); cAMP production, LANCE cAMP assay, CHO-MCR1 cells, cell pool B read as 0.8

Notebook: NDP-α-MSH-linker-MMP site-linker-ACTH1-24 (peptide) peptide: Ac-SYS[Nle]EH[dF]RWGKPVGGGGSPLGLWAGGGGSSYSMEHFRWGKPVGKKRRPVKVYP , MCR1 EC50 (nM); cAMP production, LANCE cAMP assay, CHO-MCR1 cells, cell pool B read as 2.4

Notebook: ACTH1-24-linker-MMP (broad) site-linker-NDP-α-MSH (ends and bridges not checked) peptide: SYSMEHFRWGKPVGKKRRPVKVYPGGGGSPAGLVAGGGGSSYS[Nle]EH[dF]RWGKPV , MCR1 EC50 (nM); cAMP production, LANCE cAMP assay, CHO-MCR1 cells, cell pool B read as 0.528

Notebook: ACTH1-24-natural N-terminal spacer-α-MSH (peptide) peptide: SYSMEHFRWGKPVGKKRRPVKVYPPLPEGGPEPRSDGAKPGPREGKRSYSMEHFRWGKPV , MCR1 EC50 (nM); cAMP production, LANCE cAMP assay, CHO-MCR1 cells, cell pool B read as 0.82

Notebook: XEHXRWAGASYSMEHFRWGKPVGKKRRPVKVYP (Nle, dPhe and β-Ala residues as printed: Nle-EH-dPhe-RW-β-Ala-G-β-Ala-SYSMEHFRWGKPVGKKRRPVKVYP) [NDP-ACTH4-9-βAla-G-βAla-ACTH1-24] , MCR1 EC50 (nM); cAMP production, LANCE cAMP assay, CHO-MCR1 cells, cell pool B read as 0.16

Notebook: NDP-α-MSH-linker-MMP (broad) site-linker-ACTH1-24 (peptide) peptide: Ac-SYS[Nle]EH[dF]RWGKPVGGGGSPAGLVAGGGGSSYSMEHFRWGKPVGKKRRPVKVYP , MCR1 EC50 (nM); cAMP production, LANCE cAMP assay, CHO-MCR1 cells, cell pool B read as 0.295
